- measurement target: Androgen receptor (Mus musculus) (UniProt P19091)
- Sequence (P19091 whole entry, looked up): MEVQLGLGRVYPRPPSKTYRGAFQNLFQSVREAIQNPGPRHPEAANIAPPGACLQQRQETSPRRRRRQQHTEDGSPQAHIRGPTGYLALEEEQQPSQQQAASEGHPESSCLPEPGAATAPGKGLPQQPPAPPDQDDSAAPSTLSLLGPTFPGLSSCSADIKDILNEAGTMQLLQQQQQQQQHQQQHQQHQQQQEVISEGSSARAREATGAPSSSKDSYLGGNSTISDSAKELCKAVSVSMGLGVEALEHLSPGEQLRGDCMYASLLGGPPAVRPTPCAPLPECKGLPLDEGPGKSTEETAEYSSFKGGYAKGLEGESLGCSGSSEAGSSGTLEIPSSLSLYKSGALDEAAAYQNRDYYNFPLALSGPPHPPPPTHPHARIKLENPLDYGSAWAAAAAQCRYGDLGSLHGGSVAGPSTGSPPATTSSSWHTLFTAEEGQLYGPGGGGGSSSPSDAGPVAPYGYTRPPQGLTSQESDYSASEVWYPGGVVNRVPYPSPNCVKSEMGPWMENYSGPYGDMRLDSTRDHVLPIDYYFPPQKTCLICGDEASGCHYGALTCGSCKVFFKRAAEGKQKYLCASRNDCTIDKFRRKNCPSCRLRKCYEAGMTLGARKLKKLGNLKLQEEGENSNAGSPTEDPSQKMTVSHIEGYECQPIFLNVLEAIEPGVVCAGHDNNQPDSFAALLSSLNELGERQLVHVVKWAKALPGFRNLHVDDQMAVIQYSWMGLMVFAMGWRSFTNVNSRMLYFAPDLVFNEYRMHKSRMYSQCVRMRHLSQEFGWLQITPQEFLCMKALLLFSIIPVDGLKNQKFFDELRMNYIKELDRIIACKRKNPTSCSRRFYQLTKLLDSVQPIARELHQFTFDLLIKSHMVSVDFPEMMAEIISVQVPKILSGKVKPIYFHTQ
- test details: Antagonist activity at wild type AR expressed in mouse SC-3 cells assessed as inhibition of 1 nM DHT-induced cell proliferation after 3 days by WST-8 assay
Below, each entry is listed with its recorded pIC50.
// pIC50 is dimensionless: -log10 of concentration (M)

Past entries and their recorded results:
| entry smiles | pIC50 |
| --- | --- |
| CCNc1ccccc1Cc1n[nH]c(=O)c2ccccc12 | 5.43 |
| Nc1ccccc1Cc1n[nH]c(=O)c2ccccc12 | 6.66 |
| CNc1ccccc1Cc1n[nH]c(=O)c2ccccc12 | 5.04 |

Find pIC50 (Androgen receptor (Mus musculus) (UniProt P19091)) for the entry "O=C(Nc1ccccc1Cc1n[nH]c(=O)c2ccccc12)C(F)(F)F" 6.00

Request - read-out pIC50 | tested on Androgen receptor (Mus musculus) (UniProt P19091) | compound "COc1ccccc1Cc1n[nH]c(=O)c2ccccc12" 5.02

Form entry - test system: Androgen receptor (Mus musculus) (UniProt P19091); read-out: pIC50; compound: "O=c1[nH]nc(Cc2ccccc2[N+](=O)[O-])c2ccccc12" 6.28

Record lookup: for Androgen receptor (Mus musculus) (UniProt P19091), what pIC50 belongs to "O=c1[nH]nc(Cc2ccccc2F)c2ccccc12" ? 4.98

Lab request: please report pIC50 under test system Androgen receptor (Mus musculus) (UniProt P19091) for "Cc1ccccc1Cc1n[nH]c(=O)c2ccccc12" 5.02

Query pIC50 on Androgen receptor (Mus musculus) (UniProt P19091) for "O=c1[nH]nc(Cc2ccccc2)c2ccccc12" 5.27

Enter reported pIC50 observed with Androgen receptor (Mus musculus) (UniProt P19091) for "Cc1cccc(C)c1Cc1n[nH]c(=O)c2ccccc12" 5.86

Recorded pIC50 for "O=c1[nH]nc(Cc2c(F)cccc2F)c2ccccc12" with Androgen receptor (Mus musculus) (UniProt P19091), please? 5.42

Short answer please: pIC50, Androgen receptor (Mus musculus) (UniProt P19091), entry "CCN(CC)c1ccccc1Cc1n[nH]c(=O)c2ccccc12" 5.78

// map "O=c1[nH]nc(Cc2c(Cl)ccc(Cl)c2Cl)c2ccccc12" to recorded pIC50 (system: Androgen receptor (Mus musculus) (UniProt P19091)) 6.04

What value of pIC50 on Androgen receptor (Mus musculus) (UniProt P19091) does "CN(C)c1ccccc1Cc1n[nH]c(=O)c2ccccc12" have? 5.71

Can you look up pIC50 on Androgen receptor (Mus musculus) (UniProt P19091) for "O=c1[nH]nc(Cc2ccccc2Cl)c2ccccc12" ? 5.90

Can you look up pIC50 on Androgen receptor (Mus musculus) (UniProt P19091) for "O=c1[nH]nc(Cc2ccccc2C(F)(F)F)c2ccccc12" ? 5.44

Write down the reported pIC50 of "O=c1[nH]nc(Cc2c(Cl)cccc2Cl)c2ccccc12" , test system: Androgen receptor (Mus musculus) (UniProt P19091). 6.74
